Listing: IC50 of selected compounds
target: human GPR84 receptor (Homo sapiens); experiment: Gαi biosensor BRET assay in HEK293 cells (antagonism of ZQ-16); conditions: HEK293 cells, antagonism of 200 nmol/L ZQ-16
Sequence (Q9NQS5 whole entry): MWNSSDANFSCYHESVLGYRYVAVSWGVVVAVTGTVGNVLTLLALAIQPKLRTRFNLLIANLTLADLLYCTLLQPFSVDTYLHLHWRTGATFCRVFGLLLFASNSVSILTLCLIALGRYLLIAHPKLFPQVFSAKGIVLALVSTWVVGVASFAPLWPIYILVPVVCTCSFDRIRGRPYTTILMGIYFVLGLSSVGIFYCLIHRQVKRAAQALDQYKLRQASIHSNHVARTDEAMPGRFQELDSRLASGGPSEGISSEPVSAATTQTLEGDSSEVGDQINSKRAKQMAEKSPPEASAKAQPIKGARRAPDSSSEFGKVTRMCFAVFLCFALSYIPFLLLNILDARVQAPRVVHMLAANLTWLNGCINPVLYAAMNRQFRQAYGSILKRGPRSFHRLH

>>> print(df.to_string())
                                   compound                        system_tested        obs_value
0  CC(C)Oc1cc(C#CC2CC2)cnc1-c1cn(C[C@H]2CCCCO2)nn1 [Compound I-659]  human GPR84 receptor (Homo sapiens)         ≤ 300 nM
1  Cc1cc(C#CCNC(=O)OC(C)C)ccc1-c1cn(CC2CCCCO2)nn1 (centres unmarked) [Compound I-616]  human GPR84 receptor (Homo sapiens)        > 3000 nM
2  Cc1cc(C#CC2CC2)cnc1-c1cn(C[C@H]2CCCCO2)nn1 [Compound I-245]  human GPR84 receptor (Homo sapiens)  1000 to 3000 nM
3  Cc1cc(C#CCn2cc(-c3ccc([N+](=O)[O-])cc3)nn2)ccc1-c1cn(CC2CCCCO2)nn1 (centres unmarked) [Compound I-454]  human GPR84 receptor (Homo sapiens)         ≤ 300 nM
4  CC1(C)CN(CC#Cc2cnc(-c3cn(CC4OCC5(CCC5)O4)nn3)c(OC3CC3)c2)C1 (centres unmarked) [Compound I-764]  human GPR84 receptor (Homo sapiens)   300 to 1000 nM
5  CN(C)c1cc(C#CCNc2ccccc2)ccc1-c1cn(CC2CC(C)(C)CO2)nn1 (centres unmarked) [Compound I-460]  human GPR84 receptor (Homo sapiens)   300 to 1000 nM
6  Cc1ccc(C#CC2CC2)cc1Cc1cn(CC2OCC(C)(C)CO2)nn1 [Compound I-669]  human GPR84 receptor (Homo sapiens)         ≤ 300 nM
7  CC(C)Oc1cc(N2CC(C)(C)C2)cnc1-c1cn(CC2OCC(C)(C)CO2)nn1 [Compound I-664]  human GPR84 receptor (Homo sapiens)         ≤ 300 nM

(Q) Item Cc1cc(C#CC2CC2)ccc1-c1cn(CC2CC3(CC3)CO2)nn1 (centres unmarked) [Compound I-569] has what recorded IC50?
(A) 1000 to 3000 nM

(Q) Another compound to look at: CC1(C)COC(Cn2cc(-c3ncc(C#CC4CC4)cc3OC3CC3)nn2)OC1 [Compound I-702]
(A) ≤ 300 nM

(Q) Now the same for CC(C)OCC1(C)CN(c2ccc(-c3cn(CC4OCC(C)(C)CO4)nn3)c(N(C)C)c2)C1 [Compound I-754]
(A) 300 to 1000 nM

(Q) Next up: Cc1cc(C#CC2CC2)cnc1-c1cn(CC2OCC(F)(F)CO2)nn1 [Compound I-713]
(A) 300 to 1000 nM

(Q) // query: CCc1cc(N2CCN(Cc3ccccn3)CC2)cnc1-c1cn(C[C@H]2CCCCO2)nn1 [Compound I-459]
(A) 1000 to 3000 nM

(Q) Check Cc1ccc(C#CC2CC2)cc1Cc1nnn(CC2CCCCO2)n1 (centres unmarked) [Compound I-418] too.
(A) 300 to 1000 nM

---

molecular target: human GPR84 receptor (Homo sapiens); construct: host or cells: HEK293, transient transfection; assay: Gαi biosensor BRET assay in HEK293 cells (antagonism of ZQ-16); type: cell-based; details: HEK293, single concentration 10 μM (designated F)
readout: inhibition at 10 µM

Example compounds with recorded inhibition at 10 µM:
>>> df
                                   compound                        system_tested  obs_value
0  CC(c1cccc(N2CC(C)(C)C2)c1)c1cn(CC2CCCCO2)nn1 (stereo not drawn)  human GPR84 receptor (Homo sapiens)      ≤ 25%
1  CN(c1cccc(C#N)c1)c1cn(CC2OCC(C)(C)CO2)nn1  human GPR84 receptor (Homo sapiens)      > 75%
2  CC1(C)COC(Cn2cc(-c3cn(CC4OCC(C)(C)CO4)nn3)nn2)OC1  human GPR84 receptor (Homo sapiens)  50 to 75%
3  Cc1cc(C#CC2CC2)nnc1-c1cn(CC2CCCCO2)nn1 (stereo not drawn)  human GPR84 receptor (Homo sapiens)      ≤ 25%

(Q) What reported inhibition at 10 µM corresponds to Cc1cc(C#CCN)ccc1-c1cn(CC2OCC(C)(C)CO2)nn1 on human GPR84 receptor (Homo sapiens)?
(A) 25 to 50%

(Q) Field entry: Cc1cc(C#CCN2CC(C)(C)C2)cnc1-c1cn(CC2OCC(C)(C)CO2)nn1
(A) > 75%
